test system: Calu-3; experiment: cell viability relative to DMSO; higher = less toxic; conditions: 72 h; 10 nM
readoutType: cell viability (%)
Field: numeric (%). Do not append units.

Entry under test: N=C1N[C@H]2[C@H](CS[C@H]2CCCCC(=O)O)N1 [2-iminobiotin] . Its cell viability was 98.8

Entry under test: Cc1nc(Nc2n[nH]c3c2CN(C(=O)N[C@H](CN(C)C)c2ccccc2)C3(C)C)c2sccc2n1 . Its cell viability was 89.9

Entry under test: CC1(C)S[C@@H]2[C@H](NC(=O)[C@H](NC(=O)N3CCN(S(C)(=O)=O)C3=O)c3ccccc3)C(=O)N2[C@H]1C(=O)O [mezlocillin] . Its cell viability was 88.9

Entry under test: Clc1ccccc1C(c1ccccc1)(c1ccccc1)n1cccn1 [TRAM-34] . Its cell viability was 104

Entry under test: Cc1ccc2c(c1)Cc1c(C(=O)NN3CCCCC3)nn(-c3ccc(Cl)cc3Cl)c1-2 [GP1a] . Its cell viability was 101

Entry under test: Cn1cc(-c2ccc3c(c2)CCN3C(=O)Cc2cccc(C(F)(F)F)c2)c2c(N)ncnc21 . Its cell viability was 94

Entry under test: CC(=O)N(OCc1ccccc1)[C@@H]1c2cc(C#N)ccc2OC(C)(C)[C@H]1O . Its cell viability was 96.9

Entry under test: CC(C)NCC(O)COc1cccc2[nH]ccc12 (centres undefined) [pindolol] . Its cell viability was 97

Entry under test: c1cc(Cc2cnc[nH]2)ccn1 [immethridine] . Its cell viability was 96.8

###

system: Caco-2; assay: drug sensitivity score (DSS) for viability; higher = more toxic; extreme values may be limits of the assay; conditions: 72 h
readoutType: drug sensitivity score
Output spec: single numeric token, no unit.

Entry under test: O=C(NO)C1(CS(=O)(=O)c2ccc(Oc3ccc(Cl)cc3)cc2)CCOCC1 . Its drug sensitivity score was 1.2

Entry under test: CC(=O)N[C@H]1[C@@H](OC(C)C)O[C@H](COC(C)=O)[C@@H](OC(C)=O)[C@@H]1OC(C)=O . Its drug sensitivity score was 0

Entry under test: CCCOc1ccc(S(=O)(=O)N2CCN(CCO)CC2)cc1-c1nc2c(CCC)cn(CC)c2c(=O)[nH]1 . Its drug sensitivity score was 0.1

Entry under test: CC1(C)OC[C@@H](COC(=O)CCc2ccc(OC[C@@H](O)CNCCNC(=O)N3CCOCC3)cc2)O1 . Its drug sensitivity score was 0

Entry under test: O=C(Nc1ccc(Br)cc1)c1cc(Br)cc(Br)c1O . Its drug sensitivity score was 0.6

Entry under test: Cc1nc2c([nH]1)-c1ccccc1N(C(=O)c1ccc(NC(=O)c3ccccc3-c3ccccc3)cc1)CC2 . Its drug sensitivity score was 0

Entry under test: O=C(N[C@H](Cc1ccccc1)C(=O)O)c1sc2cc(F)ccc2c1Cl . Its drug sensitivity score was 0

Entry under test: O=C(O)c1cc(=O)[nH]c(=O)[nH]1 . Its drug sensitivity score was 0

Entry under test: COc1ccc2c(c1)c(C1=C(c3c[nH]c4ccccc34)C(=O)NC1=O)cn2CCCN(C)C . Its drug sensitivity score was 0.2

Entry under test: CN(C)C(=O)Oc1cc(OC(=O)N(C)C)cc(C(O)CNC(C)(C)C)c1 (configuration not stated) . Its drug sensitivity score was 0

Entry under test: CN1CCC[C@@H](CC2c3ccccc3Sc3ccccc32)C1 (racemic) . Its drug sensitivity score was 0.6

Entry under test: CC[C@@]1(O)C(=O)OCc2c1cc1n(c2=O)Cc2cc3ccccc3nc2-1 . Its drug sensitivity score was 21.3

###

test system: HepG2; experiment: cell viability relative to DMSO; higher = less toxic; conditions: 72 h; 1000 nM
readoutType: cell viability (%)
Field: numeric (%). Do not append units.

cell viability value, target or system HepG2, for COc1ccc2c(c1)c(C1=C(c3c[nH]c4ccccc34)C(=O)NC1=O)cn2CCCN(C)C : 105

cell viability value, target or system HepG2, for CCCCOc1nc(N)c2c(n1)N(Cc1cccc(CN3CCCC3)c1)CC(=O)N2 : 100

cell viability value, target or system HepG2, for Cc1nc(=O)c2cc(CN(C)c3ccc(C(=O)N[C@@H](CCC(=O)O)C(=O)O)s3)ccc2[nH]1 : 60.7

cell viability value, target or system HepG2, for C=CC(=O)Nc1cccc(Oc2nc(Nc3ccc(N4CCN(C)CC4)cc3)nc3ccsc23)c1 : 99.6

###

Answer each item with its documented cell viability.
system: HepG2; experiment: cell viability relative to DMSO; higher = less toxic; conditions: 72 h; 10 nM

Entry under test: NC(=O)N1CCC(CC(=O)N2CCC([C@H]3c4ncc(Br)cc4CCc4cc(Cl)cc(Br)c43)CC2)CC1 [lonafarnib] . Its cell viability was 98.7%

Entry under test: CCOC(=O)c1ccc(-c2ccc(OC(=O)N(C)Cc3cccc(-c4ccncc4)c3)cc2)cc1 [WWL-113] . Its cell viability was 106%

Entry under test: CC#CCOC(=O)c1c(C)nc2sc3c(c2c1N)CCC(O)C3 (centres undefined) . Its cell viability was 94.8%

Entry under test: CC(=O)O[C@H]1C[C@H](O[C@H]2[C@@H](O)C[C@H](O[C@H]3[C@@H](O)C[C@H](O[C@H]4CC[C@@]5(C)[C@H](CC[C@@H]6[C@@H]5C[C@@H](O)[C@]5(C)[C@@H](C7=CC(=O)OC7)CC[C@]65O)C4)O[C@@H]3C)O[C@@H]2C)O[C@H](C)[C@H]1O[C@@H]1O[C@H](CO)[C@@H](O)[C@H](O)[C@H]1O [lanatoside-C] . Its cell viability was 97.7%

Entry under test: COC(=O)C1=CO[C@@H](O[C@@H]2O[C@H](CO)[C@@H](O)[C@H](O)[C@H]2O)[C@@H]2C(CO)=CC[C@H]12 [geniposide] . Its cell viability was 95.5%

Entry under test: Cc1nc(=O)c2cc(CN(C)c3ccc(C(=O)N[C@@H](CCC(=O)O)C(=O)O)s3)ccc2[nH]1 [raltitrexed] . Its cell viability was 104%

Entry under test: C=CCCCCCCCCC(=O)[O][Zn][O]C(=O)CCCCCCCCC=C [zinc-undecylenate] . Its cell viability was 98.8%

Entry under test: CC1(C)OC[C@@H](COC(=O)CCc2ccc(OC[C@@H](O)CNCCNC(=O)N3CCOCC3)cc2)O1 [landiolol] . Its cell viability was 106%

Entry under test: CS(=O)(=O)c1ccc(-c2nnc(/C=C/c3nnc(-c4ccc(C#N)cc4)o3)n2-c2ccccc2Cl)nc1 [G007-LK] . Its cell viability was 106%

Entry under test: COc1ccc(OC)c2c(=S)c3ccccc3[nH]c12 . Its cell viability was 96.3%

Entry under test: OC[C@H]1O[C@H](O[C@]2(CCl)O[C@H](CCl)[C@@H](O)[C@@H]2O)[C@H](O)[C@@H](O)[C@H]1Cl [sucralose] . Its cell viability was 97.7%

Entry under test: Oc1c(Cl)cc(Cl)c(Cl)c1Cc1c(O)c(Cl)cc(Cl)c1Cl [hexachlorophene] . Its cell viability was 98.3%

Entry under test: C[N+]12CCC(CC1)C(OC(=O)C(O)(c1ccccc1)c1ccccc1)C2 (centres undefined) [clidinium] . Its cell viability was 108%

Entry under test: CN1CCC(NC(=O)c2cc(-c3c(O)cc(O)cc3Oc3ccc([N+](=O)[O-])cc3)on2)CC1 [NMS-E973] . Its cell viability was 101%

###

system: U2OS; experiment: cell viability relative to DMSO; higher = less toxic; details: 72 h; 1000 nM
readoutType: cell viability (%)
Field: numeric (%). Do not append units.

Entry under test: CC1(C)CC[C@]2(C(=O)O)CC[C@]3(C)[C@H](C(=O)C=C4[C@@]5(C)C=C(C#N)C(=O)C(C)(C)[C@@H]5CC[C@]43C)[C@@H]2C1 . Its cell viability was 72.3

Entry under test: Nc1cccc2c1C(=O)N(C1CCC(=O)NC1=O)C2=O (stereo not given) [pomalidomide] . Its cell viability was 96.1

Entry under test: CCCCNc1c(C(=O)OCC)c(C)nc2c1cnn2CC [tracazolate] . Its cell viability was 97.7

Entry under test: Nc1nonc1/C(=N/O)Nc1ccc(F)c(Cl)c1 . Its cell viability was 95.5

Entry under test: COc1ccc2c(c1)c(C1=C(c3c[nH]c4ccccc34)C(=O)NC1=O)cn2CCCN(C)C . Its cell viability was 91.4

Entry under test: CN1CCCCC1CCN1c2ccccc2Sc2ccc([S+](C)[O-])cc21 (stereo not given) . Its cell viability was 97.5

Entry under test: COc1ccc(-c2ccc3c(N4CCOC[C@@H]4C)nc(N4CCOC[C@@H]4C)nc3n2)cc1CO . Its cell viability was 22.8

Entry under test: CNC(=O)c1c(I)c(C(=O)NCC(=O)Nc2c(I)c(C(=O)O)c(I)c(C(=O)NCCO)c2I)c(I)c(N(C)C(C)=O)c1I . Its cell viability was 101

Entry under test: O=C1Nc2ccc(I)cc2C1=Cc1cc(Br)c(O)c(Br)c1 . Its cell viability was 96.1

Entry under test: CN(C)c1nc(N)c(C(=O)Nc2cccnc2)nc1Cl . Its cell viability was 98.5

Entry under test: CN1CCC(NC(=O)c2cc(-c3c(O)cc(O)cc3Oc3ccc([N+](=O)[O-])cc3)on2)CC1 . Its cell viability was 28.2

Entry under test: CN(C)CCOC(=O)C(c1ccccc1)C1(O)CCCC1 (stereo not given) [cyclopentolate] . Its cell viability was 97.9

Entry under test: CC(C)(Cc1c[nH]c2ccc(Cl)cc12)NCCOc1ccccc1OCC1CC1 . Its cell viability was 97.3

Entry under test: O=C(O)CCCc1ccc(N(CCCl)CCCl)cc1 . Its cell viability was 97.3

Entry under test: CN1CC[C@@H](NC(=O)Nc2ccc(C#N)cc2)C[C@@H]1c1nc2ccccc2[nH]1 . Its cell viability was 98.5

The origin of these recorded values is the supplement of paper PMC13380429.
